These data points were gathered from patent US20250361268A1.

- target of assay: T1, FPR1 (UniProt P21462 1-350, limits assumed)
- T1 sequence (looked up): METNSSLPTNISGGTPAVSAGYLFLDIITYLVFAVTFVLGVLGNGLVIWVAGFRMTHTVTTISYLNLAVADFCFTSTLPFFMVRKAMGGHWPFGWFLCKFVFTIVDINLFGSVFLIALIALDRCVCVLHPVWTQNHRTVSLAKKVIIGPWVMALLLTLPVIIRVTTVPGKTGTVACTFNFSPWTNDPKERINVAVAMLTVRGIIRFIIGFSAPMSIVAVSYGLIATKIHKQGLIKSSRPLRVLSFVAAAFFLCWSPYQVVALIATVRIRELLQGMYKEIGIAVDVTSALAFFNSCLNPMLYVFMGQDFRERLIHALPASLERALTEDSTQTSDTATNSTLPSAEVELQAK
- assay notes: cell-based or functional assay
quantity kind: EC50 for [Ca2+]

KMKYKPM (HELM PEPTIDE1{[ac].K.M.K.Y.K.P.[dM].[am]}$$$$V2.0; SMILES CSCC[C@H](NC(=O)[C@H](CCCCN)NC(C)=O)C(=O)N[C@@H](CCCCN)C(=O)N[C@@H](Cc1ccc(O)cc1)C(=O)N[C@@H](CCCCN)C(=O)N1CCC[C@H]1C(=O)N[C@H](CCSC)C(N)=O) [peptide of SEQ ID NO 67]; > 10 µM

Consider the additional binder presented here.
// query What measured EC50 for [Ca2+] goes with MRYKVM (HELM PEPTIDE1{[CCCCCCCC(=O)[*:2]].M.R.Y.K.V.[dM].[am]}$$$$V2.0; SMILES CCCCCCCC(=O)N[C@@H](CCSC)C(=O)N[C@@H](CCCNC(=N)N)C(=O)N[C@@H](Cc1ccc(O)cc1)C(=O)N[C@@H](CCCCN)C(=O)N[C@H](C(=O)N[C@H](CCSC)C(N)=O)C(C)C) [peptide of SEQ ID NO 16] ?
// result > 10 µM
